- Tested on: Rhipicephalus (Boophilus) microplus larvae (strain Parkhurst, resistant against synthetic pyrethroids)
- EXPERIMENT_DESCRIPTION: Rhipicephalus (Boophilus) microplus in-vitro contact test, larval cattle tick
- Type: in vivo
- MEASUREMENT_SETUP: application rate 5 μg/cm^2 (=500 g/ha); after 48 hours
# key: entry, value: efficacy (larvae dead or moribund)
Number only, in %; omit the unit.

Examples with answers:
MOLECULE	READING_UNIT	MEAS_VALUE
CC(NC(=O)c1cc(C(F)(F)F)cc(C(F)(F)F)c1)c1nccnc1-c1cn(-c2ccn(C)n2)nn1 (racemic)	%	90
CC(NC(=O)c1cc(C(F)(F)F)cc(C(F)(F)F)c1)c1nccnc1-n1cnc(C#N)n1 (racemic)	%	100
CC(NC(=O)c1cc(Cl)cc(S(C)(=O)=O)c1)c1nccnc1-n1nccn1 (racemic)	%	90
CCN(C)C(=O)c1ncn(-c2nccnc2C(C)NC(=O)c2cc(C(F)(F)F)cc(C(F)(F)F)c2)n1 (racemic)	%	100
CCOC(=O)Cn1cc(-c2nccnc2C(C)NC(=O)c2cc(C(F)(F)F)cc(C(F)(F)F)c2)nn1 (racemic)	%	100

In the following, a different molecule is considered.
Endpoint output: efficacy (larvae dead or moribund) of CC(NC(=O)c1cc(C(F)(F)F)cc(C(F)(F)F)c1)c1nccnc1-c1cn(C)nn1 (racemic) . Value? 100
